test system: M14; assay: NCI tumour cell line growth inhibition, 48 h
Calls of active or inactive are those of the source. Cut-off read from the data, not from the text of the source: active = GI50 up to about 1.1 µM and inactive = higher.
Reported GI50 values for the following compounds.
Test Readout: GI50

>>> df
                                   compound                 result
0  Cc1nn(C(=O)CC(=O)Nc2ccc(Cl)cc2)c(C)c1/N=N/c1ccccc1C(=O)O    > 100 µM (inactive)
1                                     CNC=O  > 10000 µM (inactive)
2  C/C(=C\c1ccccc1)C(O)S(=O)(=O)O (stereo unspecified)    > 100 µM (inactive)
3  O/N=C(\CC(O)(C(F)(F)F)C(F)(F)F)c1cccc(Cl)c1     22.8 µM (inactive)
4         C=CC(C)(C)C(=C)C(=O)N(C)c1ccccc1I    > 100 µM (inactive)
5  COc1ccc(N2C(=O)C3c4[nH]c5ccc(Br)cc5c4C4CCC(C(C)(C)C)CC4C3C2=O)cc1 (stereo unspecified)     94.2 µM (inactive)

----------
tested on: HT-29; assay: NCI tumour cell line growth inhibition, 48 h
Active and inactive are the calls of the source. Cut-off read from the data, not from the text of the source: active = GI50 up to about 1.1 µM and inactive = higher. Residues, ends and D or L forms follow the SMILES beside them. *: point of attachment. X38 = O=C(c1ccc(-c2ccc(Cl)cc2Cl)o1)*
Outcomes: 1 (yes) = active, 0 (no) = inactive

Compound	Category Label
O=C(c1ccccc1)[C@H]1Nc2ccc(Cl)cc2[C@H]2CCC[C@@H]12	0 (no)
C=C1C(=O)O[C@H]2C1C[C@@H](O)/C(C)=C/CC[C@@]1(C)O[C@H]21 (some centres undefined)	0 (no)
O=C1C(=O)C(Br)(Br)C(Br)=C1Br	0 (no)
CC(C)(C)[Si](C)(C)OCC1OC(n2ccc(=O)[nH]c2=O)C(O[Si](C)(C)C(C)(C)C)[C@@]12O[C@H]2C(N)=O (some centres undefined)	0 (no)
CC(C)(c1ccccc1)c1ccc(Oc2ccc3c(c2)-c2nc-3nc3[nH]c(nc4nc(nc5[nH]c(n2)c2ccc(Oc6ccc(C(C)(C)c7ccccc7)cc6)cc52)-c2cc(Oc5ccc(C(C)(C)c6ccccc6)cc5)ccc2-4)c2ccc(Oc4ccc(C(C)(C)c5ccccc5)cc4)cc32)cc1	0 (no)
Cc1nc2c(s/c(=N\N)n2-c2ccccc2)c(=O)n1C	0 (no)
COC(=O)C(CC(C)C)NC(=O)C(Cc1ccccc1)NC(=O)C1CCCN1C(=O)C(CO)NC(=O)c1ccc(-c2ccc(Cl)cc2Cl)o1 (centres undefined) (X38-SPFL-OMe; configuration not given here)	0 (no)
COc1cc2oc3c(c(=O)c2c(O)c1/C=C/C(C)C)C(C=C(C)C)Oc1cc(O)ccc1-3 (centres undefined)	0 (no)
COc1cc(C(c2cccc3ccccc23)N2C(=O)CCC2C(=O)O)cc(OC)c1OC (centres undefined)	0 (no)
CCOc1ccccc1NC(=O)C(=O)c1c(O)c2ccc(O)cc2oc1=O	0 (no)
COC(=O)C1C(O)C(C)C(=O)C(C)/C=C\C=C(C)C(=O)Nc2c(C)c(OC(C)=O)c3c(c2O)C(=O)C(C)=C2OCOC(=C23)C(C)=CC(C)(O)C(O)C(C)C1O (centres undefined)	0 (no)
Nc1nc(O)c(Br)c(-c2cccc([N+](=O)[O-])c2)n1	0 (no)
C(=N\C12CC3CC(CC(C3)C1)C2)/C1CCCCC1	0 (no)
CC(=O)c1ccc2c(c1)C(=O)c1sc(C(C)=O)cc1C2=O	0 (no)
Cc1ccc([S@+]([O-])c2occc2C=O)cc1	0 (no)
CNC(=O)Nc1nc2cc([N+](=O)[O-])ccc2[nH]1	0 (no)
C=C1CC(Cn2cc(Br)c(=O)[nH]c2=O)(c2ccc(-c3ccccc3)cc2)OC1=O (centres undefined)	1 (yes)
O=C(Nc1ccc(-c2cn3ccccc3n2)cc1)c1cc(Br)ccc1O	0 (no)
CN(CCc1ccccn1)C(=S)N/N=C/c1ccccn1	1 (yes)
